Test system: 817829-284-R-J1-PDC complex spheroids, viability;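 also: spheroids exposed to the agents for seven days before readout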
Test: Anticancer human tumor 817829-284-R-J1-PDC patient-derived colon adenocarcinoma cell line growth inhibition [CLK]
Settings: second compound 0.0316 µM; first compound 0.1 µM; stronger effect = lower value
observed.property: viability, T/C (%)
// note: answer is a bare numeric in %

Recorded viability, T/C, per entry:
[[record]]
compound = "CCCS(=O)(=O)Nc1ccc(F)c(C(=O)c2c[nH]c3ncc(-c4ccc(Cl)cc4)cc23)c1F + CNC(=O)c1ccc(Nc2nc(OC3CCCC3)c3c(-c4ccc5nc(C)oc5c4)c[nH]c3n2)c(OC)c1"
target_entity = "817829-284-R-J1-PDC complex spheroids, viability"
recorded_number = 23.5

[[record]]
compound = "O=c1[nH]cc(F)c(=O)[nH]1 + CNC(=O)c1ccc(Nc2nc(OC3CCCC3)c3c(-c4ccc5nc(C)oc5c4)c[nH]c3n2)c(OC)c1"
target_entity = "817829-284-R-J1-PDC complex spheroids, viability"
recorded_number = 39.1

[[record]]
compound = "CCN1CCN(Cc2ccc(Nc3ncc(F)c(-c4cc(F)c5nc(C)n(C(C)C)c5c4)n3)nc2)CC1 + CN1CCN(c2cc(C(=O)Nc3cc4cc(-c5cnn(C)c5)ccc4cn3)ccn2)CC1"
target_entity = "817829-284-R-J1-PDC complex spheroids, viability"
recorded_number = 36.6


Now let's try a different one.
The compound COC1C=CCC(C)C(C)S(=O)(=O)NC(=O)c2ccc3c(c2)N(CC2CCC21)CC1(CCCc2cc(Cl)ccc21)CO3 (centres undefined) + CNC(=O)c1ccc(Nc2nc(OC3CCCC3)c3c(-c4ccc5nc(C)oc5c4)c[nH]c3n2)c(OC)c1 showed viability, T/C equal to 51.1
